Property: ELISA Absorbance (405 nm-570 nm); scope: individual binders
tested_system: T1, HHLA2 (B7-H7)
T1 construct: coated protein in the ELISA; also called HHLA2-Fc (R&D Systems)
T1 chain: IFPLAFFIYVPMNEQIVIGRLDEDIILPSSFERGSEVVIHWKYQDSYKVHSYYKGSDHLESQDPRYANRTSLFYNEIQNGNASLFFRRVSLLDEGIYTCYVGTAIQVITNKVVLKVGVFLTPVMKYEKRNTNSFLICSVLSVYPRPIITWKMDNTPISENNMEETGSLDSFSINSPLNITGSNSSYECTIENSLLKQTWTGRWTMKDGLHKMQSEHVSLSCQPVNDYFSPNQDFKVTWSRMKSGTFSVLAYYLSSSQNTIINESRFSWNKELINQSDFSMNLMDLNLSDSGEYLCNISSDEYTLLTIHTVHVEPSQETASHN
run_description: ELISA on coated HHLA2-Fc, 150 ng IgG1; None 0.087
// return just the number, without any unit appended

response.value for HW-81 chimeric rabbit-human IgG1 LA/LA/PG (antibody, V domains shown, Fc-silenced (L234A/L235A/P329G) IgG1, lambda; Alexa Fluor 647-labeled in single-step flow cytometry; Cluster C-45) VH: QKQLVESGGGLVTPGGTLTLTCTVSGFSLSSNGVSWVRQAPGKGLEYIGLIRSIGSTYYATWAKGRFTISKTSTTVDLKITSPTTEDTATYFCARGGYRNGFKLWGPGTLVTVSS VL: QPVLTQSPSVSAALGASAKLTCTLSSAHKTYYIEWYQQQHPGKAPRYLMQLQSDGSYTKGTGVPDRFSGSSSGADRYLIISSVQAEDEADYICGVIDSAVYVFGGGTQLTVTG (field: ELISA Absorbance (405 nm-570 nm)) = 0.072

response.value for HW-113 chimeric rabbit-human IgG1 LA/LA/PG (antibody, V domains shown, Fc-silenced (L234A/L235A/P329G) IgG1, lambda; Alexa Fluor 647-labeled in single-step flow cytometry) VH: QKQLVESGGGLVQPGGSLTLTCTVSGFSLNKYYMGWFRQAPGKGLEWIGVISRSGDTYYSSWAKGRFTISKASTTVDLRITSPTTEDTATYFCARDASSPGFHGDRLDLWGQGTLVTVSS VL: SFVLTQPASVQVNLGQTVSLTCTADTLSRSYASWYQQKPGQAPVLLIYRDTSRPSGVPDRFSGSSSGNTATLTISGAQAGDEADYYCATSDGIGSNYLWVFGGGTQLTVTG (field: ELISA Absorbance (405 nm-570 nm)) = 0.071

response.value for HW-42 chimeric rabbit-human IgG1 LA/LA/PG (antibody, V domains shown, Fc-silenced (L234A/L235A/P329G) IgG1, lambda; Alexa Fluor 647-labeled in single-step flow cytometry; Cluster C-1) VH: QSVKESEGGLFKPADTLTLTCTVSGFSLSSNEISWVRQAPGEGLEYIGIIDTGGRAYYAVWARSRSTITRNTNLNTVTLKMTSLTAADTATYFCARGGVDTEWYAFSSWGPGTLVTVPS VL: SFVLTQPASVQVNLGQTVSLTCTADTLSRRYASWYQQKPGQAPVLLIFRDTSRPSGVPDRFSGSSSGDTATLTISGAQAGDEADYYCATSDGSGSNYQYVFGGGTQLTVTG (field: ELISA Absorbance (405 nm-570 nm)) = 0.097

response.value for HW-101 chimeric rabbit-human IgG1 LA/LA/PG (antibody, V domains shown, Fc-silenced (L234A/L235A/P329G) IgG1, lambda; Alexa Fluor 647-labeled in single-step flow cytometry; Cluster C-97) VH: QEQLVESGGRLVTPGTPLTLTCKASGFSLGKYDMSWVRQAPGKGLEWIGTIYAGSGSTWYASWAKGRFTISKTSTTVDLKMTSLTTEDTATYFCARDFLGVNSIWGPGTLVTISS VL: SFVLTQPASVQVNLGQTVSLTCTADTLSRSYASWYQQKPDQAPVLLIHRDTSRPSGVPDRFSGSNSGNTATLTISGAQAGDEADYYCATSDGSGSNFHFVFGGGTQLTVTG (field: ELISA Absorbance (405 nm-570 nm)) = 0.069

response.value for HW-17 chimeric rabbit-human IgG1 LA/LA/PG (antibody, V domains shown, Fc-silenced (L234A/L235A/P329G) IgG1, lambda; Alexa Fluor 647-labeled in single-step flow cytometry; Cluster C-1) VH: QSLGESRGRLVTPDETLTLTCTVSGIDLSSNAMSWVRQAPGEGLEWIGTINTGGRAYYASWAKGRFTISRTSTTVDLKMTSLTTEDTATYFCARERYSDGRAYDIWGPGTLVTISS VL: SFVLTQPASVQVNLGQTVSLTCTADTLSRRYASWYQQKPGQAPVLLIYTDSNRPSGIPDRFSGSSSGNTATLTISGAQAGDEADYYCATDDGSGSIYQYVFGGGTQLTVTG (field: ELISA Absorbance (405 nm-570 nm)) = 0.076

response.value for HW-56 chimeric rabbit-human IgG1 LA/LA/PG (antibody, V domains shown, Fc-silenced (L234A/L235A/P329G) IgG1, kappa; Alexa Fluor 647-labeled in single-step flow cytometry; Cluster C-45) VH: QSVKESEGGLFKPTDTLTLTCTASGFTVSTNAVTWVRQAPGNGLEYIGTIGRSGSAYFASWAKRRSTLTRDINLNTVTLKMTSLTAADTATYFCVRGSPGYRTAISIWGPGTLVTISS VL: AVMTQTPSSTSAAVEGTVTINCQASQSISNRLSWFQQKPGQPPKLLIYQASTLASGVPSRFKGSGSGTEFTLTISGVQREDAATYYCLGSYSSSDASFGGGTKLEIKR (field: ELISA Absorbance (405 nm-570 nm)) = 0.076

response.value for HW-28 chimeric rabbit-human IgG1 LA/LA/PG (antibody, V domains shown, Fc-silenced (L234A/L235A/P329G) IgG1, lambda; Alexa Fluor 647-labeled in single-step flow cytometry; Cluster C-45) VH: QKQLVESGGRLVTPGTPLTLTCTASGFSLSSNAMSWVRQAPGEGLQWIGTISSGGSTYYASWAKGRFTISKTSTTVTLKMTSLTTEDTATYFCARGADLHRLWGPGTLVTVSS VL: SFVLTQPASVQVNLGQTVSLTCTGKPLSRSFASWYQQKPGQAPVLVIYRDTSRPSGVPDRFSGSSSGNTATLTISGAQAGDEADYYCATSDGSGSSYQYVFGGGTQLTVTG (field: ELISA Absorbance (405 nm-570 nm)) = 0.122

response.value for TH9-0022 (antibody, human IgG1, kappa, L234A L235A, V domains shown, also called TH9-022; negative control) VH: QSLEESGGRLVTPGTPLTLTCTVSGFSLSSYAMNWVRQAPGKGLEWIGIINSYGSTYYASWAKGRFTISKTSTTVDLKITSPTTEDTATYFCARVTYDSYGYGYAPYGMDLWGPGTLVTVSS VL: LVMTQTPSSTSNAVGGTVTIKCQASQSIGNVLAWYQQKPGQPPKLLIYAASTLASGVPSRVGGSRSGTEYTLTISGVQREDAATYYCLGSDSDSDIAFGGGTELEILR (field: ELISA Absorbance (405 nm-570 nm)) = 0.086

response.value for HW-16 chimeric rabbit-human IgG1 LA/LA/PG (antibody, V domains shown, Fc-silenced (L234A/L235A/P329G) IgG1, kappa; Alexa Fluor 647-labeled in single-step flow cytometry; Cluster C-45) VH: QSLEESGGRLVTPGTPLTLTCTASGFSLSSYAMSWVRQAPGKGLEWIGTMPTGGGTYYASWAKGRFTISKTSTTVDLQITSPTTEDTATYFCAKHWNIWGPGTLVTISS VL: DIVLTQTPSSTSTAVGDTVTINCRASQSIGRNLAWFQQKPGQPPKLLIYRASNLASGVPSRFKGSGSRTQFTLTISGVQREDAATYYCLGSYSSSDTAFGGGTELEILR (field: ELISA Absorbance (405 nm-570 nm)) = 0.092
